- Tested on: K-562 leukemia
- Run Description: NCI-60 one-dose screen, 48 h (100 = growth as untreated, 0 = no growth, -100 = all killed)
- Assay Context: 10 µM unless noted
The panel holds about 83,000 compounds, 20% with a hit somewhere; the sample as a whole holds those more often.
Reported growth values for the following compounds.
Response body: numeric value in %, unit text excluded.

O=C1Nc2ccccc2/C1=C/c1cn(CCCn2c3ccccc3c(=O)c3ccccc32)c2ccccc12; 91.7
Cc1cc(C)n(Cc2cc(C(C)(C)C)cc(C(C)(C)C)c2)c(=O)c1C#N; 88.1
O=c1c(CNc2ccc(S(=O)(=O)Nc3nccs3)cc2)coc2ccccc12; 92.2

Switching to the query record.
IN: Recall the recorded growth for "Fc1cccc(-c2[nH]nc3nc(Nc4cccnc4)sc23)c1" with K-562 leukemia and state it.
OUT: 21

---

- System: SF-539 CNS
- Run Description: NCI-60 one-dose screen, 48 h
- Assay Context: 10 µM unless noted
About 83,000 compounds went through this panel and 20% of them were active in at least one assay; those are over-represented in the sample as a whole. Activity calls are given as the source filed them. The calls were made as follows: active = growth percent below 10; inactive = the rest.
Write down the outcome that applies. Available outcomes: yes (1) = active, no (0) = inactive

The following compounds have reported results that may help.
Cc1ccc2[nH]cc(-c3nc(-c4cn(C)c5ncccc45)cs3)c2c1; no (0)
Cc1ccc(NC2CC(=O)N(c3c(C)cc(C)cc3C)C2=O)c(C)c1 (stereo unspecified); no (0)
Cc1cc(N(CCCNc2ccnc3cc(Cl)ccc23)Cc2ccco2)nc(N2CCN(C)CC2)n1; yes (1)
Oc1ccc(CCC2CCCC(CCc3ccc(OCCF)cc3)N2)cc1 (stereo unspecified); no (0)
CC1(c2ccccc2)OC1C(=O)O (stereo unspecified); no (0)

Now take the following compound into account.
IN: // param item: "O=C1CCC/C=C\C[C@H]2C=C(Cl)C(=O)/C2=C/C[C@H](CCCCC(F)(F)F)OC(=O)CCC/C=C\C[C@H]2C=C(Cl)C(=O)/C2=C/C[C@H](CCCCC(F)(F)F)O1" ; yields the recorded call
OUT: yes (1)

---

- System: RXF 393 renal
- Run Description: NCI-60 one-dose screen, 48 h
- Assay Context: 10 µM unless noted
This is part of a sample that, as a whole, favours compounds with a hit. Of some 83,000 tested, about 20% had one in any assay. Activity calls are given as the source filed them. The calls were made as follows: active = growth percent below 10; inactive = the rest.
Write down the outcome that applies. Available outcomes: t for active, f for inactive

The following molecules have reported results that may help.
NC1(N)C=CC2=C(C=C1)C1(N)C3=C(C=CC(N)(N)C=C3)N2C2(N)C3=C(C=CC(N)(N)C=C3)N1C1=C2C=CC(N)(N)C=C1; f
COC(=O)[C@]12CC[C@@H](C(=O)/C=C/c3cccnc3)[C@@H]1[C@H]1CC[C@@H]3[C@@]4(C)C/C(=C/c5cccnc5)C(=O)C(C)(C)[C@@H]4CC[C@@]3(C)[C@]1(C)CC2; t
C=C1C(=O)O[C@H]2[C@H]1CC/C(COC(=O)NCc1c[nH]c3ccccc13)=C\CC[C@@]1(C)O[C@@H]21; f
N#CCCCCCn1c2ccccc2c2c3c(c4c5ccccc5n(CCCCCC#N)c4c21)C(=O)N(O)C3=O; f

IN: // param item: "COc1ccc(-c2nc(SCC(=O)Nc3ccc(C(C)=O)cc3)[nH]c(=O)c2C#N)cc1" ; yields the recorded call
OUT: f

IN: // param item: "N#Cc1c(-c2ccco2)nc2c(c(-c3ccccc3)nn2-c2ccccc2)c1-c1ccc(O)cc1" ; yields the recorded call
OUT: f

IN: // param item: "Clc1cc(Cl)cc(Nc2ccc3c(OCCCN4CCOCC4)cccc3n2)c1" ; yields the recorded call
OUT: f

IN: // param item: "CC(=O)Cc1nsc(NC(=O)c2ccoc2COc2ccccc2)n1" ; yields the recorded call
OUT: f

IN: // param item: "Nc1c(C(=O)Nc2c(Cl)cccc2Cl)sc2nc3c(cc12)CCCC3" ; yields the recorded call
OUT: f

---

- System: MALME-3M melanoma
- Run Description: NCI-60 one-dose screen, 48 h
- Assay Context: 10 µM unless noted
This is part of a sample that, as a whole, favours compounds with a hit. Of some 83,000 tested, about 20% had one in any assay. The source made the active and inactive calls. The calls were made as follows: active = growth percent below 10; inactive = the rest.
Write down the outcome that applies. Available outcomes: active, inactive

The following compounds have reported results that may help.
Fc1ccc(NCc2nnc(-c3ccc(Cl)cc3)o2)cc1; inactive
COc1cccc(-c2nn(-c3ccccc3)cc2-c2ccnc(NCCNS(=O)(=O)c3ccccc3)c2)c1; inactive
COc1ccc2nc(-c3c(-c4ccccc4)nc4ncccn34)[nH]c2c1; inactive

Now take the following compound into account.
IN: // param item: "CC1(C)C(=O)/C(=C\c2ccco2)C[C@]2(C)[C@H]3CC[C@@H]4[C@@H](C(=O)/C=C/c5ccco5)CC[C@@]4(C)[C@]3(C)CC[C@@H]12" ; yields the recorded call
OUT: active

---

Reported growth values for the following compounds.
- Tested on: NCI-H226 lung
- Run Description: NCI-60 one-dose screen, 48 h (100 = growth as untreated, 0 = no growth, -100 = all killed)
- Assay Context: 10 µM unless noted
Compounds without any hit were thinned out: in the full panel of roughly 83,000, 20% have a hit.
Response body: numeric value in %, unit text excluded.

IN: Consider the compound shown here: "O=C(N/N=C\c1c(O)ccc2ccccc12)C1CC1" What is its recorded growth?
OUT: 79.6

IN: Consider the compound shown here: "COC(=O)[C@]12CC[C@@H](C)[C@H](C)[C@@H]1C1=CC(=O)[C@@H]3[C@@]4(C)C[C@@H](O)[C@H](O)[C@@]5(C)COC(=C45)C[C@@]3(C)[C@]1(C)CC2" What is its recorded growth?
OUT: 81.6

IN: Consider the compound shown here: "C=C(C)[C@@H]1CC[C@]2(C(=O)N3CCN(CC)CC3)CC[C@]3(C)[C@H](CC[C@@H]4[C@@](C)(CCC(=O)N5CCN(CC)CC5)[C@H](C(=C)C)CC[C@]43C)[C@@H]12" What is its recorded growth?
OUT: 79.6

---

Reported growth values for the following molecules.
- System: IGROV1 ovarian
- Run Description: NCI-60 one-dose screen, 48 h (100 = growth as untreated, 0 = no growth, -100 = all killed)
- Assay Context: 10 µM unless noted
This is part of a sample that, as a whole, favours compounds with a hit. Of some 83,000 tested, about 20% had one in any assay.
Response body: numeric value in %, unit text excluded.

Examples with their reported growth follow.
C(=C\c1c[nH]c2ccccc12)/c1ccc2ccccc2n1; 47.8
COc1ccc(NC(=O)c2ccoc2COc2ccccc2)cc1; 91.2

Switching to the query record.
IN: Consider the molecule shown here: O=C1c2ccccc2NC(c2cn(-c3ccccc3)nc2-c2cccnc2)N1Cc1ccccc1 (stereo not drawn) What is its recorded growth?
OUT: 76.5

---

- Tested on: SK-OV-3 ovarian
- Run Description: NCI-60 one-dose screen, 48 h (100 = growth as untreated, 0 = no growth, -100 = all killed)
- Assay Context: 10 µM unless noted
The panel holds about 83,000 compounds, 20% with a hit somewhere; the sample as a whole holds those more often.
Measured Property: growth (%)
Response body: numeric value in %, unit text excluded.

CCN1CCN(C(=O)[C@@]2(C)CC[C@]3(C)CC[C@]4(C)C(=CC(=O)[C@@H]5[C@@]6(C)CC[C@H](OCCC#N)C(C)(C)[C@@H]6CC[C@]54C)[C@@H]3C2)CC1; 99.2
O=C(N/N=C/c1ccccc1SSc1ccccc1/C=N/NC(=O)c1ccccc1)c1ccccc1; 43
OCCNc1nc(Nc2ccc(Cl)c(Cl)c2)nc2ccccc12; 62.8

IN: Consider the molecule shown here: "Cc1oc(-c2ccccc2Cl)cc1C(=O)Nc1ccc(S(N)(=O)=O)cc1" What is its recorded growth?
OUT: 98.5

---

- Test system: SK-MEL-28 melanoma
- Run Description: NCI-60 one-dose screen, 48 h (100 = growth as untreated, 0 = no growth, -100 = all killed)
- Assay Context: 10 µM unless noted
The panel holds about 83,000 compounds, 20% with a hit somewhere; the sample as a whole holds those more often.
Measured Property: growth (%)
Response body: numeric value in %, unit text excluded.

Examples with their reported growth follow.
NC1(N)C=CC2=C(C=C1)C1(N)C3=C(C=CC(N)(N)C=C3)N2C2(N)C3=C(C=CC(N)(N)C=C3)N1C1=C2C=CC(N)(N)C=C1; 99.1
COC(=O)[C@]12CC[C@@H](C)[C@H](C)[C@@H]1C1=CC[C@@H]3[C@@]4(C)C[C@@H](OC(C)=O)[C@H](OC(C)=O)[C@@](C)(COC(C)=O)[C@@H]4[C@H](O)C[C@@]3(C)[C@]1(C)CC2; 38.6
O=[N+]([O-])c1ccc(N/N=C(\C(=N/Nc2ccc([N+](=O)[O-])cc2[N+](=O)[O-])c2ccccc2)c2ccccc2)c([N+](=O)[O-])c1; 101

IN: Consider the compound shown here: "COc1ccc(-c2nc3ncccn3c2-c2nc3ccc(Br)cc3[nH]2)cc1" What is its recorded growth?
OUT: 92.6

IN: Consider the compound shown here: "c1cc(N2CCCC2)c2nc(-c3[nH]ncc3Nc3ncnc4[nH]ccc34)[nH]c2c1" What is its recorded growth?
OUT: -53.3

IN: Consider the compound shown here: "Oc1cccc2oc(=S)[nH]c12" What is its recorded growth?
OUT: 104

IN: Consider the compound shown here: "Cn1cc(-c2csc(-c3cn(C(=O)OC(C)(C)C)c4ccc(Br)cc34)n2)c2cccnc21" What is its recorded growth?
OUT: 108

IN: Consider the compound shown here: NC(Cc1ccc(O)cc1)C(=O)N/N=C/c1ccccc1O (stereo not drawn) What is its recorded growth?
OUT: 106

IN: Consider the compound shown here: "O=C1c2cc3c(cc2-c2c1c1ccc(Cl)cc1c(=O)n2C[C@H](O)[C@@H](O)[C@H](O)CO)OCO3" What is its recorded growth?
OUT: -18.8

Data provenance: PubChem BioAssay (NCI)
